Assay: Binding affinity to HSP27 I56A mutant (79 to 176 residues) (unknown origin) expressed in Escherichia coli BL21 (DE3) cells by HSQC NMR analysis
Set-up: species or system Homo sapiens
Details: read-out: Kd(app)
Measure: Kd (µM)
Field: numeric (µM). Do not append units.

For the compound shown here, O=[N+]([O-])c1ccc(Oc2ccc(F)cc2F)c([N+](=O)[O-])c1 , give the reported Kd. 63

* * *

Test: Binding affinity to HSP27 L21A mutant (79 to 176 residues) (unknown origin) expressed in Escherichia coli BL21 (DE3) cells by HSQC NMR analysis
Parameters: species or system Homo sapiens
Details: read-out: Kd(app)
Measure: pKd
Note on pKd: it is the negative log10 of concentration, concentration in mol/L.

Query (compound): O=[N+]([O-])c1ccc(Oc2ccc(F)cc2F)c([N+](=O)[O-])c1 ; field requested: pKd 4.38

* * *

Assay: Binding affinity to HSP27 T61L mutant (79 to 176 residues) (unknown origin) expressed in Escherichia coli BL21 (DE3) cells by HSQC NMR analysis
Parameters: species or system Homo sapiens
Conditions: read-out: Kd(app)
Measure: Kd (µM)
Kindly provide the numeric value in µM only, without the unit symbol.

Quick one: Kd of O=[N+]([O-])c1ccc(Oc2ccc(F)cc2F)c([N+](=O)[O-])c1 ? 32
